# Tested on: HLA-B*15:01
# Assay info: IEDB peptide-MHC binding, purified MHC/direct/fluorescence; filed as Kd, often an IC50 or EC50 that approximates it; bounds were set here for any values at or beyond the usual limits of such assays
# Experimental parameters: source organism: Bacillus anthracis
Value kind: Kd

Worked examples, 2 sequences total:
# Seq string, Value reported
data = [
    ("FIFGKMGAG", "≥ 20 µM"),
    ("RTIQGQRFW", "≥ 20 µM"),
]

Next:
Inquiry: Form field: reported Kd of KVQEWYLSY
Reply text: 0.443 µM

----------
# Tested on: HLA-B*15:01
# Assay info: IEDB peptide-MHC binding, purified MHC/direct/fluorescence; filed as Kd, often an IC50 or EC50 that approximates it; bounds were set here for any values at or beyond the usual limits of such assays
# Experimental parameters: source organism: Orthohantavirus hantanense
Value kind: Kd (nM)
Enter your answer as a number in nM; do not include the unit.

Inquiry: Form field: reported Kd of LQYAIRSVF
Reply text: 4
